Target: T1, CRBN, Q96SW2;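 further: pooled lentiviral library of zinc finger degron-EGFP fusions in mCherry-positive Jurkat cells, FACS-sorted after compound exposure, with degron abundance counted by next-generation sequencing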
T1 chain: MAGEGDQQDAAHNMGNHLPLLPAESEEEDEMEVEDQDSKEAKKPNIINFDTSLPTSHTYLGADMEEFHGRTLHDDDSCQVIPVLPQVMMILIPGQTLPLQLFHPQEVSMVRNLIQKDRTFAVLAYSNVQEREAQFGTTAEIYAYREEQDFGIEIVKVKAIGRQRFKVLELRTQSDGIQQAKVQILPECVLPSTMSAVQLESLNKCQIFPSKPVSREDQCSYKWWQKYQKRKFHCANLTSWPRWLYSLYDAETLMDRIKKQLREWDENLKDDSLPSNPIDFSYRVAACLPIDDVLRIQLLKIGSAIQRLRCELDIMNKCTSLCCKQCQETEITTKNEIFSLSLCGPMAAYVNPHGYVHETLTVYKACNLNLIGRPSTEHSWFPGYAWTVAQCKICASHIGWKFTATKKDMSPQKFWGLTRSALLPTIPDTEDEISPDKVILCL
Assay: log2 fold change of degron read counts, EGFP-low vs EGFP+ sorted cells (limma voom), compound-induced degradation; higher = more compound-induced degradation of the degron-EGFP fusion; degrons are variants of IKZF1/3 zinc finger 2; compound dose not given here
Details: Jurkat; 18 h; compound: compound 19 (5-tert-butyl-thalidomide)
The full ranking holds about 8,300 sequences; the median of “log2 fold change of degron read counts, EGFP-low vs EGFP+ sorted cells (limma voom), compound-induced degradation” is about -1.1, and the highest 2% start at about 3.2. The sample holds the highest values, similar sequences and a random draw of the others, so the mix is not that of the screen.
Kindly state log2 fold change of degron read counts for each of the entries shown.
Answers are plain numbers.

Example entries begin here.
[
  {
    "primary-sequence": "LFCEICGFTCTQKGNLLRHIKL [46L_47F_49E_50I_52G_53F_54T_55C_67L_, Q9UKT9]",
    "recorded-endpoint": "log2 fold change of degron read counts",
    "recorded-value": 3.64
  },
  {
    "primary-sequence": "LNCEICGFTCTQKGNLLRHIKL [46L_47N_49E_50I_52G_53F_54T_55C_67L_, Q9UKT9]",
    "recorded-endpoint": "log2 fold change of degron read counts",
    "recorded-value": 1.73
  },
  {
    "primary-sequence": "FLCPICGAAFTQKGNLLRHIKL [46F_47L_49P_50I_52G_53A_54A_55F_67L_, Q9UKT9]",
    "recorded-endpoint": "log2 fold change of degron read counts",
    "recorded-value": 1.31
  },
  {
    "primary-sequence": "FCCPICGAAFTQKGNLLRHIKL [46F_47C_49P_50I_52G_53A_54A_55F_67L_, Q9UKT9]",
    "recorded-endpoint": "log2 fold change of degron read counts",
    "recorded-value": 3.34
  },
  {
    "primary-sequence": "FDCPICGAAFTQKGNLLRHIKL [46F_47D_49P_50I_52G_53A_54A_55F_67L_, Q9UKT9]",
    "recorded-endpoint": "log2 fold change of degron read counts",
    "recorded-value": 2.39
  },
  {
    "primary-sequence": "FACPICGAAFTQKGNLLRHIKL [46F_47A_49P_50I_52G_53A_54A_55F_67L_, Q9UKT9]",
    "recorded-endpoint": "log2 fold change of degron read counts",
    "recorded-value": 3.73
  }
]

Now for another entry.
Asked: Param item = FLCEVCGASFTQKGNLLRHIKL [46F_47L_49E_50V_52G_53A_54S_55F_67L_, Q9UKT9] ; retrieve measured log2 fold change of degron read counts.
Given back: 1.64
